// data source = paper PMC9919591

target_of_assay: human 5-HT7R (Homo sapiens, UniProt P34969)
Construct: expressed in transfected cells; host or cells: HEK293
Sequence (P34969 whole entry): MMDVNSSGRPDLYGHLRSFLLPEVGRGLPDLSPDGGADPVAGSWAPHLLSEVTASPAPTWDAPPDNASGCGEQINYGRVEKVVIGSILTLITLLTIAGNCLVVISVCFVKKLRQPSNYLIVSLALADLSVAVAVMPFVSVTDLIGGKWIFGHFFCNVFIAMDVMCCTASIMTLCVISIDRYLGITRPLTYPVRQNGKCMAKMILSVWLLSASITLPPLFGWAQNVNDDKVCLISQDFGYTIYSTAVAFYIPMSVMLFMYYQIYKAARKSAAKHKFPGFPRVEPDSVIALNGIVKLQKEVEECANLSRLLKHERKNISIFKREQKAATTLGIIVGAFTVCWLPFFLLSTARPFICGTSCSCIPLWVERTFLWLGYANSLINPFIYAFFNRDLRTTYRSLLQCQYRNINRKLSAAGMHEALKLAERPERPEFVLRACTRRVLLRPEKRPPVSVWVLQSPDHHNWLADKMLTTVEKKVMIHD
test_summary: Radioligand binding assay, 5-HT7R ([3H]-5-CT)
condition_notes: HEK293 cells stably expressing human 5-HT7R
pKi: −log10 of the molar value.
The following compounds are shown together with reported pKi values.
measurement_kind: pKi

Cc1ccc(C(C)C)c(OCCCCCCc2nc(N)nc(N3CCN(C)CC3)n2)c1: 5.99
Cc1cccc(OCCCCCc2nc(N)nc(N3CCN(C)CC3)n2)c1: 5.72
CN1CCN(c2nc(N)nc(COc3cccc(C(C)(C)C)c3)n2)CC1: 4.81
Cc1cccc(C(C)(C)C)c1OCc1nc(N)nc(N2CCN(C)CC2)n1: 4.78
Cc1ccc(C(C)C)c(OCCCCc2nc(N)nc(N3CCN(C)CC3)n2)c1.Cl: 6.20

---

// values below are Ki; system is human 5-HT6R (Homo sapiens, UniProt P50406)
Sequence (P50406 whole entry): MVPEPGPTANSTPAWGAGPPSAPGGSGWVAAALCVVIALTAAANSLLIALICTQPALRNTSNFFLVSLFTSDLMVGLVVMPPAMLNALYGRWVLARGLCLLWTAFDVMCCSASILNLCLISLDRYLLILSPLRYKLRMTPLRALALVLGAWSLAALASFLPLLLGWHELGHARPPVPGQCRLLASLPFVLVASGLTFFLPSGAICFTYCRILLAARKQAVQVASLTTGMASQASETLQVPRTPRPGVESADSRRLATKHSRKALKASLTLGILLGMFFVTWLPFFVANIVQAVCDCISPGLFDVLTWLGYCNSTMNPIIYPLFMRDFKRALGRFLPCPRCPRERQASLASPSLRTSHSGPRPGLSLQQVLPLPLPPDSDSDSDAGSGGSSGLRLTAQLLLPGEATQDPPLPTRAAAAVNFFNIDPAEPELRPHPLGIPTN
measurement_kind: Ki (nM)

CN1CCN(c2nc(N)nc(COc3ccc(C(C)(C)C)cc3C(C)(C)C)n2)CC1: 162
Cc1ccccc1OCCCc1nc(N)nc(N2CCN(C)CC2)n1: 574
Cc1cccc(OCCCCc2nc(N)nc(N3CCN(C)CC3)n2)c1: 559
CC(C)c1ccccc1OCCCCc1nc(N)nc(N2CCN(C)CC2)n1: 43
CC(C)c1ccccc1OCc1nc(N)nc(N2CCN(C)CC2)n1: 21
Cc1ccc(C(C)C)c(OCCCCc2nc(N)nc(N3CCN(C)CC3)n2)c1.Cl: 142
CC(C)c1cccc(C(C)C)c1OCc1nc(N)nc(N2CCN(C)CC2)n1: 825
Cc1ccc(C(C)C)c(OCCCc2nc(N)nc(N3CCN(C)CC3)n2)c1: 412
CC(C)c1cccc(OCc2nc(N)nc(N3CCN(C)CC3)n2)c1: 41
Cc1ccc(C(C)C)c(OCCCCCc2nc(N)nc(N3CCN(C)CC3)n2)c1: 282
Cc1ccc(C(C)C)c(OCCCCCCc2nc(N)nc(N3CCN(C)CC3)n2)c1: 78
CN1CCN(c2nc(N)nc(COc3ccccc3C(C)(C)C)n2)CC1: 13
CC(C)c1ccc(OCCCc2nc(N)nc(N3CCN(C)CC3)n2)cc1: 1110
CC(C)c1ccccc1OCCCCCc1nc(N)nc(N2CCN(C)CC2)n1: 189
Cc1ccc(OCc2nc(N)nc(N3CCN(C)CC3)n2)c(C(C)(C)C)c1: 48
Cc1cccc(OCCCCCc2nc(N)nc(N3CCN(C)CC3)n2)c1: 644
Cc1ccc(C(C)(C)C)c(OCc2nc(N)nc(N3CCN(C)CC3)n2)c1.Cl: 6
CC(C)c1ccccc1OCCCc1nc(N)nc(N2CCN(C)CC2)n1.Cl: 221
CC(C)c1ccc(OCc2nc(N)nc(N3CCN(C)CC3)n2)cc1: 416
Cc1cccc(OCCCc2nc(N)nc(N3CCN(C)CC3)n2)c1: 1460
CN1CCN(c2nc(N)nc(COc3cccc(C(C)(C)C)c3)n2)CC1: 108
CN1CCN(c2nc(N)nc(COc3ccc(C(C)(C)C)cc3)n2)CC1: 150

---

test_summary: PAMPA assay (BBB penetration, passive transport)
Format: in vitro ADME
condition_notes: study a, read-out: Pe ± SD
measurement_kind: Papp

CN1CCN(c2nc(N)nc(COc3ccccc3C(C)(C)C)n2)CC1: 4.7 ×10⁻⁶ cm/s
